Below is a list of entries, each paired with its recorded inhibition value.
# experimental.target: Estrogen receptor beta (Rattus norvegicus)
# test: Mean percent inhibition of Estrogen receptor beta in rat
# Set-up: concentration or dose not given beside the values
# measurement.context: concentration not given here
property: inhibition (%)

[[record]]
compound = "C1=C(c2ccccc2)C(c2ccc(OCCN3CCCC3)cc2)Oc2ccccc21 (stereo unspecified)"
measured_number = 56

[[record]]
compound = "C1=C(c2ccccc2)C(c2ccc(OCCN3CCCCCC3)cc2)Oc2ccccc21 (stereo unspecified)"
measured_number = 61

[[record]]
compound = "Oc1ccc(C2Oc3ccccc3C=C2c2ccccc2)cc1 (stereo unspecified)"
measured_number = 0

[[record]]
compound = "C1=C(c2ccccc2)C(c2ccccc2OCCN2CCCCC2)Oc2ccccc21 (stereo unspecified)"
measured_number = 0

[[record]]
compound = "CC1=C(c2ccccc2)C(c2ccc(OCCN3CCCC3)cc2)Oc2ccccc21 (stereo unspecified)"
measured_number = 56

[[record]]
compound = "C1=C(c2ccccc2)C(c2ccc(OCCN3CCCCC3)cc2)Oc2ccccc21 (stereo unspecified)"
measured_number = 75

[[record]]
compound = "CCCCNCC(O)COc1ccc(C2Oc3ccccc3C=C2c2ccccc2)cc1 (stereo unspecified)"
measured_number = 0

[[record]]
compound = "CN(C)CCOc1ccc(C2Oc3ccccc3C=C2c2ccccc2)cc1 (stereo unspecified)"
measured_number = 30

[[record]]
compound = "CCC1=C(c2ccccc2)C(c2ccc(OCCN3CCCC3)cc2)Oc2cc(OC)ccc21 (stereo unspecified)"
measured_number = 0

[[record]]
compound = "COc1ccc2c(c1)OC(c1ccc(OCCN3CCCC3)cc1)C(c1ccccc1)=C2 (stereo unspecified)"
measured_number = 48

[[record]]
compound = "C1=C(c2ccccc2)C(c2cccc(OCCN3CCCCC3)c2)Oc2ccccc21 (stereo unspecified)"
measured_number = 0

